- System Tested: Glutaminase kidney isoform, mitochondrial (Homo sapiens, UniProt O94925)
- Sequence (O94925 whole entry, canonical isoform): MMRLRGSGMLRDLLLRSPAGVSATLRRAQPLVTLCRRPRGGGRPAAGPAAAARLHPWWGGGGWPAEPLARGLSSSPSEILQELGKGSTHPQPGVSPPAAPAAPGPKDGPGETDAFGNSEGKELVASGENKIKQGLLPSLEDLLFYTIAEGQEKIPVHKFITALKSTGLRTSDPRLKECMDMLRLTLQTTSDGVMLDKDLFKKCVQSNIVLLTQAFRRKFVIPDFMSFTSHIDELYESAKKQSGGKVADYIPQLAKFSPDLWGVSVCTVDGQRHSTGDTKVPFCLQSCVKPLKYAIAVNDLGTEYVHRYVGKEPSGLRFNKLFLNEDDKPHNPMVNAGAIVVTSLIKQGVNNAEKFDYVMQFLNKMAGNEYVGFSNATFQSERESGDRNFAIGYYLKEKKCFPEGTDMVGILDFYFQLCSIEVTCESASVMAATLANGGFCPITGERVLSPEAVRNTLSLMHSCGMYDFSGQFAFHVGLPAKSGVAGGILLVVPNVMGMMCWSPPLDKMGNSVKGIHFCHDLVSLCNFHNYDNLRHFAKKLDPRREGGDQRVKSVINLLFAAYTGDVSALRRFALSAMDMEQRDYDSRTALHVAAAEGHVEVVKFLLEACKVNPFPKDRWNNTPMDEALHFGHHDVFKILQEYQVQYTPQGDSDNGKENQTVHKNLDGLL
- Measurement Notes: Inhibition of human GLS1 expressed in Escherichia coli strain BL21 (DE3)pLysS pre-incubated for 10 mins before glutamine addition and measured after 60 mins by bovine liver glutamate dehydrogenase based coupled enzyme assay
With a cut-off of 300 nM, any IC50 strictly below it is called label 1; any IC50 meeting it or above is called label 0.

Criterion: IC50 strictly below 300 nM. Is it met by "N#Cc1ccc(Cn2cc(CCC(=O)Nc3nnc(CCCCc4nnc(NC(=O)Cc5ccccc5)s4)s3)nn2)cc1" ?
label 0

Continue with "Cc1cccc(C)c1Cn1cc(CCC(=O)Nc2ccc(CCCCc3nnc(NC(=O)Cc4ccccn4)s3)nn2)nn1"
label 0

Queued: "Cc1ccc(Cn2cc(CCC(=O)Nc3nnc(CCCCc4nnc(NC(=O)Cc5ccccc5)s4)s3)nn2)c(C)c1"
label 1

Next: "COc1ccc(Cn2cc(CCC(=O)Nc3ccc(CCCCc4nnc(NC(=O)Cc5ccccn5)s4)nn3)nn2)cc1"
label 1

Try "O=C(CCc1cn(Cc2ccc(Cl)cc2)nn1)Nc1nnc(CCCCc2nnc(NC(=O)Cc3ccccc3)s2)s1" next.
label 0

Now try "Cc1cccc(C)c1Cn1cc(CCC(=O)Nc2nnc(CCCCc3nnc(NC(=O)Cc4ccccc4)s3)s2)nn1" .
label 0

Another molecule: "O=C(CCc1cn(Cc2ccc([N+](=O)[O-])cc2)nn1)Nc1nnc(CCCCc2nnc(NC(=O)Cc3ccccc3)s2)s1"
label 0

Record: "Cc1ccc(Cn2cc(CCC(=O)Nc3nnc(CCCCc4nnc(NC(=O)Cc5ccccc5)s4)s3)nn2)cc1"
label 0
